Target: human CB1 receptor (Homo sapiens, UniProt P21554)
Construct: expressed in transfected cells; host or cells: SK-N-MC cells, stably transfected with pcDNA3 CB-1 (human); semi-purified membrane pellet
Sequence (P21554 whole entry): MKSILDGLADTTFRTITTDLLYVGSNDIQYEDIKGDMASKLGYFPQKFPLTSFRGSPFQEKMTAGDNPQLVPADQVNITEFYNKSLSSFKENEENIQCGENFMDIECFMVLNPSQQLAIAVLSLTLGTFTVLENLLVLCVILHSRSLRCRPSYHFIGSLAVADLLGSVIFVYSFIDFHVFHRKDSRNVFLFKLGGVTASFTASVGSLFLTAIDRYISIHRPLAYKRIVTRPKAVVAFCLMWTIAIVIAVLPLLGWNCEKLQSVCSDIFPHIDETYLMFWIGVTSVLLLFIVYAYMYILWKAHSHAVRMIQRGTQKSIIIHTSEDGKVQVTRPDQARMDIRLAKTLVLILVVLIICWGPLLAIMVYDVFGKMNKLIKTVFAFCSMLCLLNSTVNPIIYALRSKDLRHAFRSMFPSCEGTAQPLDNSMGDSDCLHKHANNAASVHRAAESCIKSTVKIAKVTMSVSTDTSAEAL
Test: Binding assay, cannabinoid CB1 receptor, [3H]-CP-55,940 displacement
Conditions: membranes of SK-N-MC cells expressing human CB1; calculated by linear regression from percent inhibition at various concentrations; read-out: Cannabinoid CB1 Receptor Binding, IC50 binding value
attributeMeasured: IC50 (nM)
Respond numerically; units are nM and should not be typed.

Give reported IC50 value for CC(=Cc1cccc(Cl)c1)c1c(C)c(C(=O)N[C@@H](C)c2ccccc2)nn1-c1ccc(Cl)cc1Cl
250

State its IC50: CC(=Cc1cccc(Cl)c1)c1c(C)c(C(=O)NN2CCCCC2)nn1-c1ccc(Cl)cc1Cl
250

Recall and state the measured IC50 for CC(=Cc1ccc(Cl)cc1)c1c(C)c(C(=O)NN2CCOCC2)nn1-c1ccc(Cl)cc1Cl .
360

Entry CC(=Cc1ccc(Cl)cc1)c1c(C)c(C(=O)N[C@H](C)C2CCCCC2)nn1-c1ccc(F)cc1F needs its IC50 filled in; supply it.
280

Identify the reported IC50 for the following entry. CC(=Cc1ccc(Cl)cc1)c1c(C)c(C(=O)Nc2ccccc2)nn1-c1ccc(Cl)cc1Cl
600

Note IC50 for the molecule shown: CC(=Cc1ccc(Cl)cc1)c1c(C)c(C(=O)NCC2CCCCC2)nn1-c1ccc(Cl)cc1Cl
370

Give the measured IC50 for CC(=Cc1ccc(Cl)cc1)c1c(C)c(C(=O)N[C@@H](C)C2CCCCC2)nn1-c1ccc(F)cc1F
130

Output measured IC50 for this item: CC(=Cc1ccc(Cl)cc1)c1c(C)c(C(=O)NC2CCCCC2C)nn1-c1ccc(Cl)cc1Cl (centres unmarked)
110

Could you please provide reported IC50 for CC(=Cc1ccc(Cl)cc1)c1c(C)c(C(=O)N[C@H](C)c2ccccc2)nn1-c1ccc(F)cc1F ? Thanks!
300

Return value of IC50 for input CC(=Cc1cccc(Cl)c1)c1c(C)c(C(=O)N[C@H](C)c2ccccc2)nn1-c1ccc(Cl)cc1Cl , no commentary.
370

Retrieve IC50 measured for CC(=Cc1ccc(Cl)cc1)c1c(C)c(C(=O)NC2CCCCC2)nn1-c1ccc(Cl)cc1Cl and print it.
130

----------
Target: human CB2 receptor (Homo sapiens, UniProt P34972)
Construct: expressed in transfected cells; host or cells: SK-N-MC cells, stably transfected with pcDNA3 CB-2 (human); semi-purified membrane pellet
Sequence (P34972 whole entry): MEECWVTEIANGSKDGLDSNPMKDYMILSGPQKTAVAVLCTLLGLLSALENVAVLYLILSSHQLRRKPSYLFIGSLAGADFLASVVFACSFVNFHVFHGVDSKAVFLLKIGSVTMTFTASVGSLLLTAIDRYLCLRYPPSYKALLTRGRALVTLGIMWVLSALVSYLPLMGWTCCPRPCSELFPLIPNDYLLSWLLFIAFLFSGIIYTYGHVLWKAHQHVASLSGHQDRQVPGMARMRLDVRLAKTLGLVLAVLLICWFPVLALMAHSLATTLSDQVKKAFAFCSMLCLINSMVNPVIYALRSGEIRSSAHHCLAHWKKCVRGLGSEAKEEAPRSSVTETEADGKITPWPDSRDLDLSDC
Experiment: Binding assay, cannabinoid CB2 receptor, [3H]-CP-55,940 displacement
Conditions: membranes of SK-N-MC cells expressing human CB2; calculated by linear regression from percent inhibition at various concentrations
Procedure: The human CB1 and CB2 receptors were stably expressed in SK-N-MC cells transfected with pcDNA3 CB-1 (human) or pcDNA3 CB-2 (human). […] On the day of the assay, the pellet was thawed on ice and diluted in assay buffer (50 mM Tris-HCl, 5 mM MgCl2, 2.5 mM EDTA, 0.5 mg/mL fatty acid free bovine serum albumin, pH 7.5). […] Non-specific binding was measured in wells containing WIN 55,212 (10 uM). […]
attributeMeasured: IC50 (nM)
Numbers only; they are read as nM.

Using known records, supply IC50 for CC(=Cc1ccc(Cl)cc1)c1c(C)c(C(=O)NN2CCCCC2)nn1-c1ccc(Cl)cc1Cl
1700
